# PROTOCOL DESCRIPTION: photoluminescence quantum yield (fraction); solvent given as SMILES
# APPLIED CONDITIONS: in Cc1ccccc1
Listed molecules paired with reported photoluminescence quantum yield
Enter a number only.

// known answers, use as guide
>>> endpoint_result("CCCCCCCCc1ccc(-c2c3cc(-c4cc(CCCCCCCC)c(-c5ccc(-c6sc(/C=C7\\SC(N8CCCCC8)=NC7=O)cc6CCCCCCCC)s5)s4)sc3c(-c3ccc(CCCCCCCC)s3)c3cc(-c4cc(CCCCCCCC)c(-c5ccc(-c6sc(/C=C7\\SC(N8CCCCC8)=NC7=O)cc6CCCCCCCC)s5)s4)sc23)s1")
0.211
>>> endpoint_result("COc1cc(N(c2ccc(C=C(C#N)C#N)c(OC)c2)c2ccc(C=C(C#N)C#N)c(OC)c2)ccc1C=C(C#N)C#N")
0.018
>>> endpoint_result("CCCCCCC(CCCCCC)N1C(=O)c2cccc3c(-c4ccc(OC)cc4)ccc(c23)C1=O")
0.75
>>> endpoint_result("F[B-]1(F)n2c(c3cccc4cccc2c43)=Nc2cccc[n+]21")
0.99
>>> endpoint_result("COC(=O)C(Cc1ccc2oc(-c3ccc(-n4c5ccccc5c5ccccc54)cc3)nc2c1)NC(=O)OC(C)(C)C (centres undefined)")
0.69

input: Tell me its photoluminescence quantum yield given N#CC(C#N)=Cc1nc2ccc(C#Cc3ccc(N(c4ccccc4)c4ccccc4)cc3)cc2s1 as the entry.
output: 0.07

input: Tell me its photoluminescence quantum yield given O=S(=O)(c1ccc(-c2ccc3c(c2)c2ccccc2n3-c2ccccc2)cc1)c1ccc(-c2ccc3c(c2)c2ccccc2n3-c2ccccc2)cc1 as the entry.
output: 1

input: Tell me its photoluminescence quantum yield given CC(C)[Si](C#Cc1ccc(-c2c3cccc4c5cccc6c(-c7ccc(C#C[Si](C(C)C)(C(C)C)C(C)C)cc7)c7cccc8c9cccc2c9c(c34)c(c65)c78)cc1)(C(C)C)C(C)C as the entry.
output: 0.38

input: Tell me its photoluminescence quantum yield given N#Cc1c(-n2c3ccc(-c4ccccc4)cc3c3cc(-c4ccccc4)ccc32)c(-n2c3ccccc3c3ccccc32)c(-n2c3ccc(-c4ccccc4)cc3c3cc(-c4ccccc4)ccc32)c(-n2c3ccccc3c3ccccc32)c1-n1c2ccc(-c3ccccc3)cc2c2cc(-c3ccccc3)ccc21 as the entry.
output: 0.83

input: Tell me its photoluminescence quantum yield given O=P1(c2ccccc2)C2=C(c3ccccc31)[Si](c1ccccc1)(c1ccccc1)c1cc(N(c3ccccc3)c3ccccc3)ccc12 (centres undefined) as the entry.
output: 0.86

input: Tell me its photoluminescence quantum yield given Cc1cc2c(o1)=CC1=C(C(F)(F)F)c3cc4oc(C)cc4n3[B-](F)(F)[N+]=21 as the entry.
output: 0.97

input: Tell me its photoluminescence quantum yield given C1=Nc2cccc3cccc(c23)N1 as the entry.
output: 0.005

input: Tell me its photoluminescence quantum yield given COc1ccc(C2=C(c3ccc(-c4ccccc4)cc3)C(c3ccccc3)=[N+]3C2=Nc2c(-c4ccc(OC)cc4)c(-c4ccc(-c5ccccc5)cc4)c(-c4ccccc4)n2[B-]3(F)F)cc1 as the entry.
output: 0.01

input: Tell me its photoluminescence quantum yield given O=C(O)COc1ccc2[nH]c3c(c2c1)CCCC3=O as the entry.
output: 0.026

====

Listed compounds paired with reported photoluminescence quantum yield
# PROTOCOL DESCRIPTION: photoluminescence quantum yield (fraction); solvent given as SMILES
# APPLIED CONDITIONS: in Cc1ccccc1
Enter a number only.

>>> endpoint_result("COc1ccc(C2=C(c3ccc(C)cc3)C(c3ccccc3)=[N+]3C2=Nc2c(-c4ccc(OC)cc4)c(-c4ccc(C)cc4)c(-c4ccccc4)n2[B-]3(F)F)cc1")
0.01
>>> endpoint_result("CCCCN1C(=O)c2cccc3c(N(C)C)ccc(c23)C1=O")
0.95
>>> endpoint_result("CCCCC1(CCCC)c2cc(C#Cc3ccc4ccc5cccc6ccc3c4c56)ccc2-c2ccc(C#Cc3ccc4ccc5cccc6ccc3c4c56)cc21")
0.99

Let us examine a further case.
input: Tell me its photoluminescence quantum yield given COc1ccc(-c2csc(/C(C#N)=C/c3ccncc3)n2)cc1 as the entry.
output: 0.285

====

# PROTOCOL DESCRIPTION: photoluminescence quantum yield (fraction); solvent given as SMILES
# APPLIED CONDITIONS: in OCC(F)(F)F
Listed compounds paired with reported photoluminescence quantum yield
Enter a number only.

>>> endpoint_result("N#Cc1cccc(N)c1")
0.0054
>>> endpoint_result("FC(F)(F)C(F)(F)C(F)(F)C(F)(F)C(F)(F)C(F)(F)CCOc1nnc(Cl)nn1")
0.26
>>> endpoint_result("Cc1cc2c(o1)c(C)cc1ccc(=O)oc12")
0.03
>>> endpoint_result("Cc1ccc(C2=C3C=C(I)C=[N+]3[B-](F)(F)n3c2cc(I)c3I)cc1")
0.022
>>> endpoint_result("C=CCOc1nnc(OCCC(F)(F)C(F)(F)C(F)(F)C(F)(F)C(F)(F)C(F)(F)C(F)(F)C(F)(F)F)nn1")
0.02
>>> endpoint_result("Cc1ccc(C2=C3C=C(I)C(I)=[N+]3[B-](F)(F)n3c2cc(I)c3I)cc1")
0.059
>>> endpoint_result("CCCCN1C(=O)C(=C/C=C/C=C/C=C2N(CCCC)c3ccccc3N2CCCC)C(=O)N(CCCC)C1=S")
0.023
>>> endpoint_result("CCC1=C(C)C2=C(C)c3c(I)c(I)c(I)n3[B-](F)(F)[N+]2=C1C")
0.04
>>> endpoint_result("N#Cc1ccc(N)cc1")
0.0052
>>> endpoint_result("CC(C)(C)NC1=C2C=CC=[N+]2[B-](F)(F)n2cccc21")
0.006

Let us examine a further case.
input: Tell me its photoluminescence quantum yield given O=c1cc(C(F)(F)F)c2cc3c4c(c2o1)CCCN4CCC3 as the entry.
output: 0.47

====

# PROTOCOL DESCRIPTION: photoluminescence quantum yield (fraction); solvent given as SMILES
# APPLIED CONDITIONS: in CCCCCC
MEASUREMENT KIND: photoluminescence quantum yield
Enter a number only.

// known answers, use as guide
>>> endpoint_result("CCCCCCCCCCCCC1(CCCCCCCCCCCC)c2cc(-c3ccc(C=C4C(=O)c5ccccc5C4=O)cc3)ccc2-c2ccc(-c3ccc(C=C4C(=O)c5ccccc5C4=O)cc3)cc21")
0.008
>>> endpoint_result("Brc1ccc(-c2nc(-c3ccc(C#Cc4ccc(-n5c6ccccc6c6ccccc65)cc4)cc3)nc(-c3ccc(C#Cc4ccc(-n5c6ccccc6c6ccccc65)cc4)cc3)n2)cc1")
0.9
>>> endpoint_result("COc1ccc(C#Cc2ccc(C#N)cc2)cc1OC")
0.16
>>> endpoint_result("COc1cc(OC)c(C2=C3C(C)=CC(C)=[N+]3[B-](F)(F)n3c(C)cc(C)c32)c(OC)c1")
0.95
>>> endpoint_result("CNc1cccc2c1C(=O)c1ccccc1C2=O")
0.0136
>>> endpoint_result("CCCCCCC(CCCCCC)N1C(=O)c2cccc3c(-c4ccc(OC)c5ccccc45)ccc(c23)C1=O")
0.33
>>> endpoint_result("CCCCc1ccc2ccc3c(CCCC)cc(CCCC)c4ccc1c2c34")
0.49
>>> endpoint_result("Nc1ccc(/C=C/c2ccccc2)cc1")
0.03
>>> endpoint_result("CCCCCCC(CCCCCC)N1C(=O)c2cccc3c(-c4ccc(OC)c5cccc(C)c45)ccc(c23)C1=O")
0.34
>>> endpoint_result("c1ccc(N2c3ccccc3Sc3cc(-c4cccc5nc6ccccc6cc45)ccc32)cc1")
0.213

input: Tell me its photoluminescence quantum yield given c1ccc2c(c1)[nH]c1ccccc12 as the entry.
output: 0.53

input: Tell me its photoluminescence quantum yield given CCCCCCCCN1c2ccc(C#Cc3ccc(F)cc3)cc2Sc2cc(C=O)ccc21 as the entry.
output: 0.48

input: Tell me its photoluminescence quantum yield given Cc1ccc(/C(C#N)=C/c2cc(/C=C(\C#N)c3ccc(C)cc3)c(-c3ccc(N(c4ccccc4)c4ccccc4)cc3)cc2-c2ccc(N(c3ccccc3)c3ccccc3)cc2)cc1 as the entry.
output: 0.121

input: Tell me its photoluminescence quantum yield given c1ccc2cc(-c3cc(-c4nccs4)nc(-c4nccs4)c3)ccc2c1 as the entry.
output: 0.289

input: Tell me its photoluminescence quantum yield given CCCCCCCCN1c2ccc(C#Cc3cc(C(F)(F)F)cc(C(F)(F)F)c3)cc2Sc2cc(C=O)ccc21 as the entry.
output: 0.6

input: Tell me its photoluminescence quantum yield given CC(C)[Si](C#Cc1c2nsnc2c(C#C[Si](C(C)C)(C(C)C)C(C)C)c2nc3c(nc12)C1c2ccccc2C3c2ccccc21)(C(C)C)C(C)C as the entry.
output: 0.66

input: Tell me its photoluminescence quantum yield given CC1(C)Cc2c(c3ccccc3c3nc4c(nc23)c2c(c3ccccc34)OC(C)(C)C2)O1 as the entry.
output: 0.4

input: Tell me its photoluminescence quantum yield given CC(C)[Si](C#Cc1c2nc3c(nc2c(C#C[Si](C(C)C)(C(C)C)C(C)C)c2nc4c(nc12)C1c2ccccc2C4c2ccccc21)C1c2ccccc2C3c2ccccc21)(C(C)C)C(C)C as the entry.
output: 0.33

Sourced from the Deep4Chem optical property database
